Listed below: Percent Effect values for each entry.
system: Wolbachia pipientis; assay: Anti-Wolbachia Cell-Based Screen; type: functional; design: scale not given: in the data most compounds retested in dose-response had high values; conditions: 5 µM
Out of some 48,000 compounds screened, about 13,000 (27%) showed an effect of 50% or more. Some of the results follow.
Write it as a number; the unit % goes unstated.

Worked set:
{"columns": ["COMPOUND", "UNIT_TEXT", "Percent Effect"],
 "data": [
  ["COc1ccc([C@@H](C)n2ccnc2-c2cc3n(n2)CCCNC3)cc1", "%", -13.97],
  ["c1ccc(N2CCC(NCc3cccc4cn[nH]c34)C2)cc1 (stereo unspecified)", "%", 2.833],
  ["COc1ccc(-c2nc(C3CCNCC3)cc3c2ncn3C)cc1.Cl.Cl", "%", -43.66],
  ["COc1ccc(-c2cc(C3CCNCC3)ccn2)cc1.Cl", "%", 126.8],
  ["O=C(NCC1(O)CCOc2ccccc21)Nc1ccc2c(c1)OCO2 (stereo unspecified)", "%", 5.05]
]}

Now take the following compound into account.
Q: Tell me its Percent Effect on Wolbachia pipientis: COc1cccc(-c2cc(C3CCCNC3)ccn2)c1 (stereo unspecified)
Ans: 179.8

====

tested on: Wolbachia pipientis; assay: Anti-Wolbachia Cell-Based Screen; type: functional; parameters: scale not given: in the data most compounds retested in dose-response had high values; details: 5 µM
About 13,000 (27%) of roughly 48,000 compounds showed an effect of 50% or more. Some of the results follow.
Kindly apply the following: satisfied if Percent Effect is less than -10%, not satisfied in every other case.

{"columns": ["COMPOUND", "TARGET_OF_ASSAY", "CATEGORY_LABEL"],
 "data": [
  ["CN(C)C1CC2(CCN(C(=O)NC3CC3)CC2)c2ccccc21.O=C(O)C(F)(F)F (stereo not given)", "Wolbachia pipientis", "satisfied"],
  ["O=c1[nH]nc(-c2cccs2)c2sc(N3CCOCC3)nc12", "Wolbachia pipientis", "satisfied"],
  ["O=C(O)C(F)(F)F.O=C(O)C(F)(F)F.O=C(O)C(F)(F)F.c1cncc(CN2CC[C@@H]3[C@@H]2CCN3Cc2ccc3c(c2)OCO3)c1", "Wolbachia pipientis", "satisfied"]
]}

Q: Does the reported Percent Effect of the following compound sit strictly below -10%? COc1ccc2c(c1)C1(CCN(Cc3cccnc3)CC1)N(C)CC2.O=C(O)C(F)(F)F.O=C(O)C(F)(F)F.O=C(O)C(F)(F)F
Ans: not satisfied

Q: Determine if CCC(CO)N(Cc1ccccn1)C(=O)c1ccc2c(c1)CCO2 (stereo not given) shows Percent Effect strictly lower than -10%.
Ans: not satisfied

====

tested on: Wolbachia pipientis; experiment: Anti-Wolbachia Cell-Based Screen; assay type: functional; parameters: scale not given: in the data most compounds retested in dose-response had high values; conditions: 5 µM
The whole screen tested about 48,000 compounds, of which about 13,000 (27%) showed an effect of 50% or more. This is one part of the list.
PROPERTY: Percent Effect (%)
Kindly answer with a numeric value in %, unit omitted.

See these solved cases before continuing.
{"columns": ["MOLECULE", "NUMERIC_READOUT"],
 "data": [
  ["Cc1ccccc1C(=O)N1CCOC2(CNCCOC2)C1 (stereo not drawn)", -17.32],
  ["COc1ccc(F)cc1-n1cnc(CCNC(C)=O)c1", -9.257],
  ["Cc1nccn1-c1ccccc1CNC(=O)c1cn(CCN)nn1", 1.636],
  ["O=C(c1ccc(NCc2ccco2)nc1)N1CCc2ccccc21", 16.32],
  ["Cc1nnc(NC(=O)NCc2ccoc2)s1", 74.81]
]}

Q: Look up and state reported Percent Effect for CCCc1nnc(NC2CCN(C3CCSCC3)CC2)o1
Ans: -8.087

Q: Hello, please tell me recorded Percent Effect for this one: CC(C)n1nccc1NC(=O)NCCc1nc2ccc(F)cc2n1C
Ans: -24.15

Q: Tell me Percent Effect reported for COc1ccc(F)cc1C(C)NC(=O)Nc1nnc(C)s1 (stereo not drawn)
Ans: -6.536

Q: Give me measured Percent Effect, please, for this molecule: COc1ccc(Cl)cc1-n1cnc(CCNC(C)=O)c1
Ans: -30.19

Q: Determine its reported Percent Effect: Cc1cc(=O)[nH]c(-n2nc(C)c(CCC(=O)Nc3nc(C)cs3)c2C)n1
Ans: 139.8
